Target: Human Recombinant Matriptase 2 (Homo sapiens, UniProt Q8IU80)
Construct: made in house
Sequence (Q8IU80 whole entry): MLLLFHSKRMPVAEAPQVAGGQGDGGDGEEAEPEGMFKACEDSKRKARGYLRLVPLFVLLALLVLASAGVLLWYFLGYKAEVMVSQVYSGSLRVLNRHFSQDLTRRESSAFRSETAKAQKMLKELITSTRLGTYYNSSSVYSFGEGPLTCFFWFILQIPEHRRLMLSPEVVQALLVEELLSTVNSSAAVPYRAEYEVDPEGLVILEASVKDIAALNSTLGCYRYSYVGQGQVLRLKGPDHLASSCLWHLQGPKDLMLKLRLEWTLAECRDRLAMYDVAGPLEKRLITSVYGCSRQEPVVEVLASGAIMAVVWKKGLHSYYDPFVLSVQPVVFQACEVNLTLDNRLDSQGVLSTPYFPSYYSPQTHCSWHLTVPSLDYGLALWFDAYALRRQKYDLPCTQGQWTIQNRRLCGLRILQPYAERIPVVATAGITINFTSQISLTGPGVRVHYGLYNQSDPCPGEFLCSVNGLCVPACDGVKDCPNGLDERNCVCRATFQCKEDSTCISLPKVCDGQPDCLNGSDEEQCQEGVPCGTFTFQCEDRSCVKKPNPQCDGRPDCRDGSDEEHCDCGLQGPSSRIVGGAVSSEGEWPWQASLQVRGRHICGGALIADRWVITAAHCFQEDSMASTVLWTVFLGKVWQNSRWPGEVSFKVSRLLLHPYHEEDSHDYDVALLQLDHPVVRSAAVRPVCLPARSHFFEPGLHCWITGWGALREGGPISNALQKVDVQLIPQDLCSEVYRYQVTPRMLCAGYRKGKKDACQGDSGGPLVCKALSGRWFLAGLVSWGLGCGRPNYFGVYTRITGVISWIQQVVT
Assay: Matriptase 2 inhibition, fluorescence based assay (Method I)
Type: biochemical
Conditions: Table B; Human Recombinant Matriptase 2, 3.5 nM enzyme, 62 μM substrate, 30 mins preincubation; read-out: Mean Ki
pKi: −log10 of the molar value.
measured_parameter: pKi

Worked cases, answers included:
- compound: "NCc1ccc2cc(C(=O)OCC3CNC(=O)C3)n(Cc3cc(NS(=O)(=O)Cc4ccsc4)cc4ccccc34)c2n1 (stereo not drawn)"
  reported_measurement: "≥ 7.00"
- compound: "CN1CC(COC(=O)c2cc3ccc(CN)nc3n2Cc2cc(NS(=O)(=O)Cc3ccccc3)cc3ccccc23)CC1=O (stereo not drawn)"
  reported_measurement: "≥ 7.00"
- compound: "CNC12CC(COC(=O)c3cc4ccc(CN)nc4n3Cc3cc(NS(=O)(=O)Cc4c(C)cccc4C)cc4ccccc34)(C1)C2"
  reported_measurement: "≥ 7.00"
- compound: "CN1CCC(C(OC(=O)c2cc3ccc(CN)nc3n2Cc2cc(NS(=O)(=O)Cc3ccccc3)cc3ccccc23)C2CC2)CC1 (stereo not drawn)"
  reported_measurement: "≥ 7.00"
- compound: "NCc1ccc2cc(C(=O)NCc3ccc(N)cc3)n(Cc3cc(NS(=O)(=O)Cc4ccccc4)cc4ccccc34)c2n1"
  reported_measurement: "≥ 7.00"
- compound: "CNC12CC(COC(=O)c3cc4ccc(CN)nc4n3Cc3cc(NS(=O)(=O)Cc4ccccc4)cc4ccccc34)(C1)C2"
  reported_measurement: "≥ 7.00"
- compound: "CN1CCC(COC(=O)c2cc3ccc(CN)nc3n2Cc2cc(NS(=O)(=O)Cc3ccccc3)cc3c2CCCC3)CC1=O (stereo not drawn)"
  reported_measurement: "≥ 7.00"
- compound: "CN1CCC(CCOC(=O)c2cc3ccc(CN)nc3n2Cc2cc(NS(=O)(=O)Cc3ccccc3)cc3c2CCCC3)CC1=O (stereo not drawn)"
  reported_measurement: "6.30 to 7.00"
- compound: "CN1CCC(COC(=O)c2cc3ccc(CN)nc3n2Cc2cccc3cnccc23)CC1"
  reported_measurement: "< 5.52"
- compound: "Cc1cccc(C)c1CS(=O)(=O)Nc1cc2c(c(Cn3c(C(=O)OCC4CCN(C)CC4)cc4ccc(CN)nc43)c1)CCCC2"
  reported_measurement: "≥ 7.00"

Note: attention shifts to another entry.
**Q:** May I ask what pKi has been recorded for CN1CCC(COC(=O)c2cc3ccc(CN)nc3n2Cc2cc(NS(=O)(=O)Cc3ccsc3)cc3ccccc23)CCC1=O (stereo not drawn) ?
**A:** ≥ 7.00

---

Target: Human Recombinant Matriptase 2 (Homo sapiens, UniProt Q8IU80)
Construct: made in house
Test: Matriptase 2 inhibition, fluorescence based assay (Method I)
Type: biochemical
Conditions: Table A; Ki of Matriptase-2 given as class symbols; read-out: Mat-2 Ki
pKi: −log10 of the molar value.
measured_parameter: pKi

Worked set:
- compound: "CCN(CC)CCS(=O)(=O)Nc1cc(Cn2c(C(=O)O)cc3ccc(CN)nc32)c2ccccc2c1 [Compound 265]"
  pKi: "6.30 to 7.00"
- compound: "CN(C)Cc1nnc(-c2cc3ccc(CN)nc3n2Cc2cc(NS(=O)(=O)Cc3ccccc3)cc3ccccc23)o1 [Compound 347]"
  pKi: "6.30 to 7.00"
- compound: "NCc1ccc2cc(-c3nnc(N)o3)n(Cc3cc(NS(=O)(=O)Cc4ccccc4)cc4ccccc34)c2n1 [Compound 348]"
  pKi: "≥ 7.00"
- compound: "NCc1ccc2cc(C(=O)O)n(Cc3cc(NS(=O)(=O)CC4CCC(C(F)(F)F)CC4)cc4ccccc34)c2c1 (stereo not shown) [Compound 392]"
  pKi: "5.52 to 6.30"
- compound: "Cc1cc(CS(=O)(=O)Nc2cc(Cn3c(C(=O)O)cc4ccc(CN)nc43)c3ccccc3c2)no1 [Compound 250]"
  pKi: "5.52 to 6.30"

// switching to the query compound
**Q:** Request the reported pKi associated with NCc1ccc2cc(C(=O)O)n(Cc3cc(NS(=O)(=O)Cc4c(Cl)cccc4Cl)cc4ccccc34)c2n1 [Compound 251]
**A:** 5.52 to 6.30
